Every entry's value here was drawn from paper PMC4788259.

system: E. multilocularis metacestodes; assay: PGI assay: phosphoglucose isomerase release from damaged metacestodes; format: cell-based, Echinococcus multilocularis; conditions: 10 μM, 5 days, single wells, relative to DB1127 (10 μM)
# binarize PGI (% of DB1127 at 10 uM): threshold -30% inclusive, high side MET, low side NOT MET

compound="CCN1CCN(Cc2ccc(NC(=O)c3cc4ccc5cccnc5c4[nH]3)cc2)CC1 [MMV020548]" classification=MET
compound="O=C(NC1CCN(Cc2ccccc2)CC1)c1cc(C(=O)NC2CCN(Cc3ccccc3)CC2)cc(C(=O)NC2CCN(Cc3ccccc3)CC2)c1 [MMV019881]" classification=MET
compound="COc1ccccc1N1C(=N)SC(=Cc2ccc(OCc3ccccc3F)cc2)C1=O [MMV007199]" classification="NOT MET"
compound="COc1ccc2c(=O)cc(C(Cl)(Cl)Cl)oc2c1 [MMV665820]" classification=MET
compound="Cc1ccc(Nc2nc(-c3ccccn3)cs2)cc1 [MMV007907]" classification=MET
compound="COc1ccc(-n2ccnc2SCC(=O)Nc2cc(C)ccc2C)c(OC)c1 [MMV019258]" classification="NOT MET"
compound="CCOC(=O)C1=CN(C)C=C(C(=O)OCC)C1c1cc(Br)c(OCC)c(OC)c1 [MMV006656]" classification=MET
compound="N#Cc1nc(Cc2cccc3ccccc23)oc1N1CCN(C(c2ccccc2)c2ccccc2)CC1 [MMV396726]" classification=MET
compound="FC(F)(F)c1cccc(CNC2CCN(CCc3ccccc3)CC2)c1 [MMV665979]" classification="NOT MET"
compound="Cl.Clc1cc(Br)ccc1-c1ccc(CNCC2CCNCC2)o1 [MMV019918]" classification=MET
compound="Cc1cccc(N2C(=O)C3C(C2=O)C2(c4ccccc4)C(=O)C3(c3ccccc3)C(c3ccc4c(c3)OCO4)=C2c2ccc3c(c2)OCO3)c1 (stereo not drawn) [MMV007228]" classification=MET
compound="O=C(Nc1cccc(-c2nc3ccccc3[nH]2)c1)c1cccc(NC(=O)c2ccco2)c1 [MMV665883]" classification=MET
compound="N=c1n(CCN2CCCCC2)c2ccccc2n1CC(=O)c1ccc(Cl)c(Cl)c1 [MMV396723]" classification=MET
compound="Cc1cc(NC(=O)C2c3ccccc3C(=O)N(CC(C)C)C2c2cccs2)no1 (stereo not drawn) [MMV006429]" classification="NOT MET"
compound="CCCOCc1cc(CN2CCN(c3cccc(Cl)c3)CC2)c(O)c2ncccc12 [MMV000787]" classification=MET
compound="Cc1ccc(Cn2c(N3CCC(C(=O)NCc4cccs4)CC3)nc3ccccc32)cc1 [MMV007564]" classification="NOT MET"
compound="CCOc1cc(Cl)c(C(C)NC(=O)c2cccc(OC)c2)cc1OCC (stereo not drawn) [MMV665803]" classification="NOT MET"
compound="CCOc1ccc(C2N(C)c3ccccc3N2C)cc1 [MMV075490]" classification=MET

====

tested on: E. multilocularis metacestodes; assay: PGI assay: phosphoglucose isomerase release from damaged metacestodes; type: cell-based, Echinococcus multilocularis; conditions: 10 μM, 5 days, single wells, relative to DB1127 (10 μM)
Quantity name: PGI (% of DB1127 at 10 uM) (%)

compound=Cc1cc(Nc2ccc(OCc3ccccc3)cc2)nc2cc(O)ccc12 number=115.72
compound=COc1ccc(-c2cc3c(SCC(=O)Nc4cc(C(F)(F)F)ccc4Cl)nccn3n2)cc1 number=-59.06
compound=COc1ccc(CN2CCN(Cc3ccccc3)CC2)c(O)c1 number=-7.26
compound=CCn1nc(-c2ccc(C(=O)OC)cc2)nc2c(=O)n(C)c(=O)nc1-2 number=-10.99
compound="CCOc1c(Cl)cc(CNC(C)C(O)c2ccccc2)cc1OC (stereo not shown)" number=-30.92
compound=CCc1c(C)c(=N)c2ccccc2n1C.I number=-42.72
compound=COc1cc(OC)cc(N2C(=O)N(Cc3ccc(C(C)(C)C)cc3)c3ccccc3S2(=O)=O)c1 number=-29.78
compound=COc1ccccc1CNC(=O)CCn1c(=O)[nH]c2ccccc2c1=O number=-47.23
compound=COCCn1c(C)nc2ccccc2c1=O number=-26.17
compound=CC(=O)Nc1nnc(SCc2c(C)cc(C(C)(C)C)cc2C)s1 number=1.07
compound=Cc1c(C)n(Cc2ccc(F)cc2)c2ccc(C(=O)NCc3ccco3)cc12 number=-33.19
compound=CCOc1ccc(Nc2c3ccccc3nc3ccccc23)cc1.Cl number=38.31
compound="CCOC(=O)C1=C(c2ccccc2)N=c2sc(=Cc3cc(C)n(-c4ccc(F)cc4)c3C)c(=O)n2C1c1cccc(OC)c1OC (stereo not shown)" number=-52.06
compound=Cc1nc2ccccc2c(O)c1CC=C(Cl)Cl number=45.96
compound="Cc1c(C)n(CC(O)CNC2CCCCC2C)c2ccccc12 (stereo not shown)" number=5.77
compound=CCOC(=O)c1ccc2[nH]c(-c3ccccc3)cc(=O)c2c1 number=4.84
compound=CSc1ccccc1C(=O)Nc1nc(-c2ccccn2)cs1 number=-29.53
compound=c1ccc(/C2=N/c3ccccc3/N=C(/c3ccccc3)c3ccccc32)cc1 number=13.66
compound=COc1cc(C(=O)Nc2ccc(-c3nc4ccccc4[nH]3)cc2)cc(OC)c1OC number=-11.03

====

Below is a list of entries, each paired with its recorded PGI (% of DB1127 at 10 uM) value.
tested on: E. multilocularis metacestodes; assay: PGI assay: phosphoglucose isomerase release from damaged metacestodes; type: cell-based, Echinococcus multilocularis; details: 10 μM, 5 days, single wells, relative to DB1127 (10 μM)
Quantity name: PGI (% of DB1127 at 10 uM) (%)

compound=O=c1nc(C=Cc2ccc(Cl)cc2)oc2ccccc12 number=41.38
compound=COc1ccc(C=C2SC(Nc3ccc(F)cc3)=NC2=O)c(OC)c1 number=7.76
compound=CC(=O)NCCc1nc2ccccc2n1Cc1ccc(C(C)C)cc1 number=-2.63
compound="COc1ccc(N2CCN(C(CNC(=O)C3CCCCC3)c3ccc4c(c3)OCO4)CC2)cc1 (stereo not drawn)" number=-7.72
compound=CCOc1c(Br)cc(C2C(C(=O)OC)=CN(C)C=C2C(=O)OC)cc1OC number=-0.44
compound=c1ccc(Cn2c(N=Nc3c(Nc4ccccc4)ccc4ccccc34)nc3ccccc32)cc1 number=-50.58
compound=COc1ccc(C(=O)Nc2ccc(Cl)cc2C(=O)Nc2ccncc2)cc1 number=5.52
compound=Cc1ccc(N2C3c4ccccc4N(S(=O)(=O)c4ccc(C)cc4)C2c2ccccc2N3S(=O)(=O)c2ccc(C)cc2)cc1 number=-42.36
compound=O=C(NCc1ccco1)C1CCN(S(=O)(=O)c2ccc(Br)cc2)CC1 number=-0.53
compound=O=C1c2ccccc2-c2nnc(-c3ccc(Br)cc3)cc21 number=-7.23
compound="CCOC(=O)C1=C(C)N=c2sc(=Cc3cc(Cl)ccc3O)c(=O)n2C1c1ccc(OC)cc1 (stereo not drawn)" number=-11.30
compound=COc1ccccc1CNC(=O)CCn1c(=O)[nH]c2ccsc2c1=O number=-44.92
compound="CCOc1ccccc1CNC(=O)C1c2ccccc2C(=O)N(CC(C)C)C1c1cccs1 (stereo not drawn)" number=-120.29
compound="CCOC(=O)C1CCN(C(=O)CN2C(=O)c3ccccc3C2c2c[nH]c3ccccc23)CC1 (stereo not drawn)" number=-33.19
compound="CC1CN(C(=O)c2sc3ccccc3c2Cl)CC(C)O1 (stereo not drawn)" number=-44.30
compound=O=C(O)C(=O)O.Oc1ccccc1CN1CCN(C(c2ccccc2)c2ccccc2)CC1 number=-19.79
compound="COc1ccc(C(O)(CCC(C)C)C(CN2CCOCC2)c2ccc(Cl)cc2)cc1.Cl (stereo not drawn)" number=-8.60
compound="CC(NCc1ccccc1)c1cc(Cl)ccc1O (stereo not drawn)" number=-38.95

====

Below is a list of entries, each paired with its recorded PGI (% of DB1127 at 10 uM) value.
tested on: E. multilocularis metacestodes; experiment: PGI assay: phosphoglucose isomerase release from damaged metacestodes; type: cell-based, Echinococcus multilocularis; settings: 10 μM, 5 days, single wells, relative to DB1127 (10 μM)
Quantity name: PGI (% of DB1127 at 10 uM) (%)

molecule=COc1cccc(NC(=O)[C@H](C(C)C)n2c(=O)[nH]c3ccccc3c2=O)c1 quantity_name="PGI (% of DB1127 at 10 uM)" number=-74.00
molecule="COc1ccc(CN2CCCC(C(=O)c3ccc(C(F)(F)F)cc3)C2)c(O)c1 (centres unmarked)" quantity_name="PGI (% of DB1127 at 10 uM)" number=-1.92
molecule="COc1cccc(O)c1CN1CCC2(CCCN(Cc3ccc(F)cc3)C2)C1 (centres unmarked)" quantity_name="PGI (% of DB1127 at 10 uM)" number=-20.69
molecule=CCOc1ccc2nc(C)cc(Nc3ccc(N(C)C)cc3)c2c1.Cl quantity_name="PGI (% of DB1127 at 10 uM)" number=-3.98
molecule=Cc1ccc(S(=O)(=O)c2c(COC(=O)c3cccc(C)c3)c(-c3ccccc3)nn2C)cc1 quantity_name="PGI (% of DB1127 at 10 uM)" number=-18.54
molecule=O=C(Nc1ccc(Cl)cc1C(=O)Nc1ccncc1)c1ccc(Cl)cc1Cl quantity_name="PGI (% of DB1127 at 10 uM)" number=-78.23
molecule="C=C(C)CCC(C)N1CCC(N2CCC(C(=O)NCCc3ccccc3)CC2)CC1 (centres unmarked)" quantity_name="PGI (% of DB1127 at 10 uM)" number=-25.44
molecule="COCCNCC(O)Cn1c2ccc(Cl)cc2c2cc(Cl)ccc21 (centres unmarked)" quantity_name="PGI (% of DB1127 at 10 uM)" number=20.81
molecule=COc1ccc2sc(N(Cc3cccnc3)C(=O)c3ccc(C#N)cc3)nc2c1 quantity_name="PGI (% of DB1127 at 10 uM)" number=-2.38
molecule=CCOc1ccc(N2C(N)=NC(N)=NC2(C)C)cc1.Cl quantity_name="PGI (% of DB1127 at 10 uM)" number=-3.47
molecule=CCCCc1c(C)nc2c(OC)cccc2c1O quantity_name="PGI (% of DB1127 at 10 uM)" number=1.39
molecule=CCCCc1c(CCC)c(=N)c2ccccc2n1C.I quantity_name="PGI (% of DB1127 at 10 uM)" number=29.51
molecule=CC(=O)c1ccc(NC(=O)CSc2nc(-c3ccccc3Cl)ns2)cc1 quantity_name="PGI (% of DB1127 at 10 uM)" number=-5.85
molecule=CN(C)c1ccc(N=Cc2ccc(N3CCOCC3)cc2)cc1 quantity_name="PGI (% of DB1127 at 10 uM)" number=-14.14
molecule=Br.Cc1ccc(C)c(-c2csc(Nc3ccc(C)c(C)c3)n2)c1 quantity_name="PGI (% of DB1127 at 10 uM)" number=3.26
molecule="CC(O)(c1ccc(Cl)cc1)C(CN1CCCCC1)c1ccccc1.Cl (centres unmarked)" quantity_name="PGI (% of DB1127 at 10 uM)" number=-136.22
molecule=Cl.Cn1c(=O)n(C)c2cc(CNCCNc3ccnc4cc(Cl)ccc34)ccc21 quantity_name="PGI (% of DB1127 at 10 uM)" number=7.55
molecule=Oc1ccc(C(=C(Cl)Cl)c2ccc(O)cc2)cc1 quantity_name="PGI (% of DB1127 at 10 uM)" number=8.99
molecule=CC1=C(CC(=O)c2cccc([N+](=O)[O-])c2)C(=O)c2ccccc2C1=O quantity_name="PGI (% of DB1127 at 10 uM)" number=-2.81
molecule="COc1ccc(CCNC(=O)c2cc(S(=O)(=O)N3CC(C)CC(C)C3)ccc2Sc2ccc(F)cc2)cc1OC (centres unmarked)" quantity_name="PGI (% of DB1127 at 10 uM)" number=14.98
molecule=CCn1c(CN2CCN(Cc3ccccc3)CC2)nc2cc(NC(=O)c3cccs3)ccc21 quantity_name="PGI (% of DB1127 at 10 uM)" number=-13.64
molecule=Cn1c(=O)c2cc(C(=O)NCCCN3CCCCCC3)sc2c2ccccc21 quantity_name="PGI (% of DB1127 at 10 uM)" number=-53.66
molecule=Cc1cc(NC(=O)c2ccc(-c3ccccc3)cc2)no1 quantity_name="PGI (% of DB1127 at 10 uM)" number=6.32
molecule="COc1ccc2c(c1)OC(O)(C(F)(F)C(F)(F)F)CC2=O (centres unmarked)" quantity_name="PGI (% of DB1127 at 10 uM)" number=50.23
molecule="O=C(NC1CCCCC1)C(c1cccs1)N(CCc1ccccc1)C(=O)c1ccco1 (centres unmarked)" quantity_name="PGI (% of DB1127 at 10 uM)" number=2.06
molecule=Cc1cc(NC(=O)c2cccc(C(F)(F)F)c2)n(-c2nc(-c3ccc4c(c3)OCO4)cs2)n1 quantity_name="PGI (% of DB1127 at 10 uM)" number=-33.55
molecule=Cl.Oc1ccccc1CNCC12CC3CC(CC(C3)C1)C2 quantity_name="PGI (% of DB1127 at 10 uM)" number=-57.58
molecule=Clc1ccc2[nH]c3c(NCCCN4CCOCC4)ncnc3c2c1 quantity_name="PGI (% of DB1127 at 10 uM)" number=-6.35
molecule=O=C(Nc1ccc(-c2nc3cc4ccccc4cc3[nH]2)cc1)c1cccc(Br)c1 quantity_name="PGI (% of DB1127 at 10 uM)" number=-30.92
molecule=CCCCNc1nc(NC(C)(C)C)nc(NC(C)(C)C)n1 quantity_name="PGI (% of DB1127 at 10 uM)" number=-36.23
molecule=CC(C)(C)c1ccc(C(=O)Nc2nc3ccccc3s2)cc1 quantity_name="PGI (% of DB1127 at 10 uM)" number=-17.15
molecule=CCN(CC)CCCNc1nc(-c2ccc(Cl)cc2)nc2ccccc12 quantity_name="PGI (% of DB1127 at 10 uM)" number=-34.32
molecule=COc1ccc2nc(N)nc(C)c2c1 quantity_name="PGI (% of DB1127 at 10 uM)" number=-26.21
molecule="COc1ccc(N2CCN(C(CNC(=O)CC(C)(C)C)c3ccc4c(c3)OCO4)CC2)cc1 (centres unmarked)" quantity_name="PGI (% of DB1127 at 10 uM)" number=-6.01
molecule=COc1cccc(Cn2c(Oc3ccccc3)nc3c2c(=O)n(C)c(=O)n3C)c1 quantity_name="PGI (% of DB1127 at 10 uM)" number=-23.91
molecule=O=C(Nc1ccc(N2CCN(Cc3ccccc3)CC2)cc1)c1cccs1.O=C(O)C(F)(F)F quantity_name="PGI (% of DB1127 at 10 uM)" number=-9.43
molecule=Cc1cc(C)cc(Nc2cc(C)nc3nc(C(F)(F)F)nn23)c1 quantity_name="PGI (% of DB1127 at 10 uM)" number=-21.18
molecule=Oc1c(CN2CCN(c3ccccc3F)CC2)cc(Br)c2cccnc12 quantity_name="PGI (% of DB1127 at 10 uM)" number=-8.56
